# System: Fibroblast
# assay_notes: Multiplex assay against human fibroblast
# Type: toxicity, cell-based
# study_conditions: 12 h, 1 µM, compound concentration 1 uM, replicate 1
Hi there, I'd appreciate the recorded Population Membrane Permeable-Phenotype (%) for every entry that follows.

I have this molecule here, O=C(CCCc1ccccc1)Nc1nc2ccccc2c(=O)s1 , and I need its recorded Population Membrane Permeable-Phenotype (%).
0%

I have this molecule here, CCCOc1ccc2[nH]cc(C3=CCNCC3)c2n1.Cl , and I need its recorded Population Membrane Permeable-Phenotype (%).
0%

I have this molecule here, Cc1c(CC(=O)O)c2cccnc2n1Cc1ccc(S(C)(=O)=O)cc1C(F)(F)F , and I need its recorded Population Membrane Permeable-Phenotype (%).
1%

I have this molecule here, O=C(NCCN1CCC(n2c(=O)[nH]c3cc(Cl)ccc32)CC1)c1ccc(F)cc1 [HALOPEMIDE] , and I need its recorded Population Membrane Permeable-Phenotype (%).
1%

I have this molecule here, CN1CCN(c2cc(-c3ccccc3)nc(N)n2)CC1 , and I need its recorded Population Membrane Permeable-Phenotype (%).
1%

I have this molecule here, Br.CS(=O)(=O)Nc1c(O)ccc2c1CCCC2C1=NCCN1 (configuration not stated) , and I need its recorded Population Membrane Permeable-Phenotype (%).
0%

I have this molecule here, CC(C)COc1ccc(CNC(=O)N(Cc2ccc(F)cc2)C2CCN(C)CC2)cc1 , and I need its recorded Population Membrane Permeable-Phenotype (%).
0%

I have this molecule here, CN(C)C(=O)Cn1cc(-c2ccc(-c3cncc4ccccc34)cc2)cn1 , and I need its recorded Population Membrane Permeable-Phenotype (%).
0%

I have this molecule here, CCCCC(=O)N(Cc1ccc(-c2ccccc2-c2nnn[nH]2)cc1)[C@H](C(=O)O)C(C)C , and I need its recorded Population Membrane Permeable-Phenotype (%).
0%

I have this molecule here, Cc1cccc(NC(=O)CN2CCC(c3ccccn3)CC2)c1.Cl.Cl , and I need its recorded Population Membrane Permeable-Phenotype (%).
0%

I have this molecule here, CC(=O)Nc1cccc2c1c(Sc1ccc(Cl)cc1)c(C)n2CC(=O)O , and I need its recorded Population Membrane Permeable-Phenotype (%).
2%

I have this molecule here, CCCCC1=NC2(CCCC2)C(=O)N1Cc1ccc(-c2ccccc2-c2nnn[nH]2)cc1 , and I need its recorded Population Membrane Permeable-Phenotype (%).
0%

I have this molecule here, N#Cc1cc(F)cc(-c2nc(-c3ccc(F)cn3)no2)c1 , and I need its recorded Population Membrane Permeable-Phenotype (%).
2%

I have this molecule here, Cc1cnc(-c2cc(N3CCN(C(=O)CCS(C)(=O)=O)CC3)ncc2Cl)c(C)c1 , and I need its recorded Population Membrane Permeable-Phenotype (%).
0%

I have this molecule here, CC(C)c1noc(N2CCC(COc3ccc(-c4ccc(S(C)(=O)=O)cc4)nc3)CC2)n1 , and I need its recorded Population Membrane Permeable-Phenotype (%).
0%

I have this molecule here, N#Cc1c(Oc2cccc(OS(=O)(=O)CCCC(F)(F)F)c2)cccc1C(F)(F)F , and I need its recorded Population Membrane Permeable-Phenotype (%).
1%

I have this molecule here, Cl.NCCc1ccc(O)c(O)c1 [DOPAMINE HYDROCHLORIDE] , and I need its recorded Population Membrane Permeable-Phenotype (%).
0%
